Origin of values: ChEMBL document CHEMBL1909569

Target: DNA-directed RNA polymerase subunit beta (Mycobacterium tuberculosis)
Assay: Inhibition of wild type Mycobacterium tuberculosis RNA polymerase after 10 mins using ribo green staining by rolling circle transcription assay
Design: unit not given here
Assay readout: logIC50
The answer should be written as a number, with no unit following it.

Example entries and their recorded answers appear below.
>>> number("CO[C@H]1/C=C/O[C@@]2(C)Oc3c(C)c(N)c4c(c3C2=O)C(=O)C=C(NC(=O)/C(C)=C\\C=C\\[C@H](C)[C@H](O)[C@@H](C)[C@@H](O)[C@@H](C)[C@H](OC(C)=O)[C@@H]1C)C4=O")
0.644
>>> number("CO[C@H]1/C=C/O[C@@]2(C)Oc3c(C)c(OS(=O)(=O)c4ccc(C)cc4)c4c(c3C2=O)C(=O)C=C(NC(=O)/C(C)=C\\C=C\\[C@H](C)[C@H](O)[C@@H](C)[C@@H](O)[C@@H](C)[C@H](OC(C)=O)[C@@H]1C)C4=O")
-1.68

Now for another entry.
input: Form field: logIC50 recorded for CO[C@H]1/C=C/O[C@@]2(C)Oc3c(C)c(N(C)C)c4c(c3C2=O)C(=O)C=C(NC(=O)/C(C)=C\C=C\[C@H](C)[C@H](O)[C@@H](C)[C@@H](O)[C@@H](C)[C@H](OC(C)=O)[C@@H]1C)C4=O with DNA-directed RNA polymerase subunit beta (Mycobacterium tuberculosis) (enter value)
output: -0.298
